Biological target: Neu5Ac(a2-3)Gal(b1-4)[Fuc(a1-3)]GlcNAc(b1-6)[Gal(b1-3)]GalNAc
Assay: glycan array binding signal (z-score within array); higher = stronger binding
Conditions: glycan notation: IUPAC condensed, linker removed
Only a selection was taken, and the strongest signals are over-represented in it overall.
quantityMeasured: glycan array binding signal (z-score)

binder	recordedValue
Mincle (Bos taurus) (protein) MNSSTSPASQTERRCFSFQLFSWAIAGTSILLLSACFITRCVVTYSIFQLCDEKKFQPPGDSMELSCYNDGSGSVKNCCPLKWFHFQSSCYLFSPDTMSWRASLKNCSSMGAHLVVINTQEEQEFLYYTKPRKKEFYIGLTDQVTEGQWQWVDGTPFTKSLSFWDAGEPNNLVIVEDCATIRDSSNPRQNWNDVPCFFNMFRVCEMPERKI	0.16
Protectin (Homo sapiens), P13987 (protein) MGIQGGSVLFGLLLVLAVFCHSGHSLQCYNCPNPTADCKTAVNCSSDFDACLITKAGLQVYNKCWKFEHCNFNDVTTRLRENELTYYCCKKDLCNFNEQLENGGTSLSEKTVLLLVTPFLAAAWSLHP	-0.153
